Each recorded value in this set is attributed to patent US11370784B2.

SUBJECT_OF_TEST: USP30 (Homo sapiens (Human), UniProt Q70CQ3)
Sequence (Q70CQ3 57-517): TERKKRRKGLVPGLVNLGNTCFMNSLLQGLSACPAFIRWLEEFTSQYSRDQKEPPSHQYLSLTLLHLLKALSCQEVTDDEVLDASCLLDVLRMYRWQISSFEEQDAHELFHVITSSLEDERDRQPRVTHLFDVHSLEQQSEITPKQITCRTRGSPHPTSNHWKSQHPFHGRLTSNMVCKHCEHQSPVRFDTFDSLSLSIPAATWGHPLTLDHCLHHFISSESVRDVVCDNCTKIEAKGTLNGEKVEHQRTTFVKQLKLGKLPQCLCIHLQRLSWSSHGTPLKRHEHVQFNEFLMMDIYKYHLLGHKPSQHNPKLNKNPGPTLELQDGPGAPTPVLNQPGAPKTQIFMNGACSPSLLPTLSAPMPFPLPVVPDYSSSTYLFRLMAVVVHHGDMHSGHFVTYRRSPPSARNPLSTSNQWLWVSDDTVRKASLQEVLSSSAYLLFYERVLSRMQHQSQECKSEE
pIC50: −log10 of the molar value.
READOUT: pIC50

1. N#CN1CCO[C@H](C(=O)Nc2cc(-c3ccccc3)ccn2)C1: 5.00 to 6.00
2. N#CN1CCC[C@](F)(C(=O)Nc2ccc(-c3ccn[nH]3)cn2)C1: 6.00 to 7.00
3. N#CN1CCO[C@@H](C(=O)Nc2cc(-c3cccc(Cl)c3)ncn2)C1: 6.00 to 7.00
4. N#CN1CCO[C@@H](C(=O)Nc2ccc(-c3ccn[nH]3)cn2)C1: 5.00 to 6.00
5. N#CN1CCCC(F)(C(=O)Nc2cc(-c3ccccc3)on2)C1 (stereo not shown): 6.00 to 7.00
6. CC(C)Oc1cccc(-c2cc(NC(=O)[C@H]3CN(C#N)CCO3)ncn2)c1: 5.00 to 6.00
7. N#CN1CCO[C@@H](C(=O)Nc2ncc(-c3ccccc3)s2)C1: 6.00 to 7.00
8. N#CN1CCC[C@](F)(C(=O)Nc2ccc(-c3cccc4[nH]ncc34)nn2)C1: > 7.00
9. N#Cc1cccc(-c2cc(NC(=O)C3(F)CCCN(C#N)C3)no2)c1 (stereo not shown): 6.00 to 7.00
10. N#CN1CCC[C@](F)(C(=O)Nc2cc(-c3cccc(Cl)c3)on2)C1: > 7.00
11. N#CN1CCO[C@@H](C(=O)Nc2cc(-c3cccc4[nH]ncc34)ncn2)C1: 5.00 to 6.00
12. N#CN1CCO[C@@H](C(=O)Nc2cnc(-c3ccccc3)s2)C1: 5.00 to 6.00
13. N#CN1CCCC(F)(C(=O)Nc2nc3ccc(-c4cn[nH]c4)cc3s2)C1 (stereo not shown): 5.00 to 6.00
14. N#CN1CCC[C@](F)(C(=O)Nc2ccc(-c3nccc4cn[nH]c34)cn2)C1: > 7.00
15. N#CN1CCC[C@](F)(C(=O)Nc2cnc(-c3cccc4cn[nH]c34)cn2)C1: > 7.00
16. N#CN1CCC[C@H](C(=O)Nc2ncc(-c3ccccc3)s2)C1: 5.00 to 6.00
17. N#CN1CCO[C@@H](C(=O)Nc2cc(-c3cccc(Cl)c3)cnn2)C1: 6.00 to 7.00
18. N#CN1CCOC(C(=O)Nc2ccc(-c3ccccc3)cc2)C1 (stereo not shown): 5.00 to 6.00
19. Cn1cc(-c2ccc(NC(=O)C3CN(C#N)CCO3)cc2)cn1 (stereo not shown): 5.00 to 6.00

---

SUBJECT_OF_TEST: USP30 (Homo sapiens (Human), UniProt Q70CQ3)
TEST_METHOD_NOTES: USP30 biochemical IC50 assay
CONDITION_LABEL: fluorescence polarisation, TAMRA labelled peptide linked to ubiquitin as substrate; enzyme and compound incubated 30 min at room temp; read-out: IC50 range
pIC50: −log10 of the molar value.
Reported pIC50 is given for each of the following compounds.
READOUT: pIC50

1. N#CN1CCCC(C(=O)Nc2cc(-c3ccccc3)[nH]n2)C1 (stereo not drawn) [Example 38]: 5.00 to 6.00
2. N#Cc1cccc(-n2cnc(NC(=O)[C@@]3(F)CCCN(C#N)C3)n2)c1 [Example 83]: 6.00 to 7.00
3. N#Cc1ccc2cnc(NC(=O)[C@H]3CN(C#N)CCO3)cc2c1 [Example 65]: 5.00 to 6.00
4. N#Cc1cccc(-n2cnc(NC(=O)[C@@]3(F)CCCN(C#N)C3)c2)c1 [Example 79]: 6.00 to 7.00
5. N#CN1CCCC(C(=O)Nc2cc(-c3ccccc3)no2)C1 (stereo not drawn) [Example 41]: 5.00 to 6.00
6. N#Cc1ccc(-c2cc(NC(=O)[C@H]3CN(C#N)CCO3)ncn2)cc1 [Example 25]: 5.00 to 6.00
7. N#CN1CCC[C@](F)(C(=O)Nc2ccc(-c3cccc4cn[nH]c34)cn2)C1 [Example 84]: > 7.00
8. N#CN1CCC[C@](F)(C(=O)Nc2ncc(-c3cccc4cn[nH]c34)cn2)C1 [Example 92]: > 7.00
9. N#CN1CCOC(C(=O)Nc2cc(-c3cccc(C(F)(F)F)c3)no2)C1 (racemic) [Example 19]: 6.00 to 7.00
